experiment: AUC in mouse at 10 mg/kg, po; type: ADME, organism-based; design: dose 10 mg/kg; conditions: in vivo
PARAMETER_MEASURED: AUC (ng·h/mL)

INSERT INTO measurements (smiles_record, parameter_measured, test_result) VALUES
  ('Cc1ccc(C(=O)Nc2cc(C(=O)O)cc(-c3ccoc3)c2)cc1', 'AUC', 7280);

* * *

Measured solubility, listed per entry.
assay: Aqueous solubility of compound in PBS buffer at pH 7.4 incubated for overnight by UV-spectrometry; type: physicochemical
PARAMETER_MEASURED: solubility (µg/mL)

INSERT INTO results (smiles_record, operator_symbol, test_result) VALUES
  ('Cc1ccc(C(=O)Nc2cc(C(=O)O)cc(-c3ccoc3)c2)cc1', '=', 77.6),
  ('O=C(O)c1cc(-c2ccc(C3CCNCC3)cc2)c2ccc(-c3ccc(C(F)(F)F)cc3)cc2c1', '<', 5),
  ('Cc1ccc(C(=O)Nc2cc(C(=O)O)cc(-c3ccccc3)c2)cc1', '=', 46.3);

* * *

test: Cmax in mouse at 10 mg/kg, po; format: ADME, organism-based; set-up: route oral, dose 10 mg/kg; conditions: in vivo
PARAMETER_MEASURED: Cmax

INSERT INTO results (smiles_record, test_result) VALUES
  ('Cc1ccc(C(=O)Nc2cc(C(=O)O)cc(-c3ccoc3)c2)cc1', '1800 ng/mL');

* * *

assay: Half life in mouse at 10 mg/kg, po; type: ADME, organism-based; conditions: in vivo
PARAMETER_MEASURED: half-life (h)

INSERT INTO results (smiles_record, unit_abbrev, test_result) VALUES
  ('Cc1ccc(C(=O)Nc2cc(C(=O)O)cc(-c3ccoc3)c2)cc1', 'h', 2.56);

* * *

# pIC50 per record follows
Target: P2Y purinoceptor 14 (Homo sapiens, UniProt Q15391)
Sequence (Q15391 whole entry): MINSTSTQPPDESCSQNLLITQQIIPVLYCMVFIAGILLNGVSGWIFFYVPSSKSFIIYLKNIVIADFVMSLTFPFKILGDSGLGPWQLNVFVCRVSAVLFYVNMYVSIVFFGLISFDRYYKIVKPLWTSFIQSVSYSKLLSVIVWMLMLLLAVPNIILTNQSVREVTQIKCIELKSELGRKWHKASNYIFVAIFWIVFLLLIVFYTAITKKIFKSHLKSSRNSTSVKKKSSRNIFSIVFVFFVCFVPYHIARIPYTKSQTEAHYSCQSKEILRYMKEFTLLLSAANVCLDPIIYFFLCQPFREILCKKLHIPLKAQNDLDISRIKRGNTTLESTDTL
Assay: Antagonist activity at P2Y14 (unknown origin) expressed in HEK293 cells assessed as reduction in cAMP production incubated for 30 mins by ADP-glo assay
Type: functional, cell-based
pIC50: −log10 of the molar value.
PARAMETER_MEASURED: pIC50

INSERT INTO measurements (smiles_record, test_target, test_result) VALUES
  ('Cc1ccc(C(=O)Nc2cc(C(=O)O)cc(-c3ccoc3)c2)cc1', 'P2Y purinoceptor 14 (Homo sapiens, UniProt Q15391)', 8.66),
  ('Cc1ccc(C(=O)Nc2cc(C(=O)O)cc(-c3ccccc3)c2)cc1', 'P2Y purinoceptor 14 (Homo sapiens, UniProt Q15391)', 8.31),
  ('Cc1ccc(C(=O)Nc2cc(C(=O)O)cc(-c3c(C)noc3C)c2)cc1', 'P2Y purinoceptor 14 (Homo sapiens, UniProt Q15391)', 8.53),
  ('Cc1ccc(C(=O)Nc2cc(C(=O)O)cc(-c3cc[nH]n3)c2)cc1', 'P2Y purinoceptor 14 (Homo sapiens, UniProt Q15391)', 8.58),
  ('Cc1ccc(C(=O)Nc2cc(C(=O)O)cc(-c3ccsc3)c2)cc1', 'P2Y purinoceptor 14 (Homo sapiens, UniProt Q15391)', 8.01);

* * *

biological target: P2Y purinoceptor 14 (Homo sapiens) (UniProt Q15391); settings: HEK293, filed as antagonist, dose 100.0 nM, time 30.0 min
PARAMETER_MEASURED: inhibition (%)

INSERT INTO measurements (smiles_record, parameter_measured, unit_abbrev, test_result) VALUES
  ('Cc1ccc(C(=O)Nc2cc(C(=O)O)cc(-c3cc[nH]n3)c2)cc1', 'inhibition', '%', 86.8),
  ('Cc1ccc(C(=O)Nc2cc(C(=O)O)cc(-c3ccoc3)c2)cc1', 'inhibition', '%', 93.4),
  ('Cc1ccc(C(=O)Nc2cc(C(=O)O)cc(-c3cnc(N)nc3)c2)cc1', 'inhibition', '%', 68.6),
  ('Cc1ccc(C(=O)Nc2cc(C(=O)O)cc(-c3ccsc3)c2)cc1', 'inhibition', '%', 83);
